These data points were gathered from the supplement of paper PMC10065799.

biological target: FGFR1 (UniProt P11362); assay: phosphorylation enrichment, bacterial display (enrichment ratio); higher = better substrate or ligand; peptides without Tyr show the background;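 note: 11-residue human phosphosite peptides and single-mutation variants displayed on the E. coli surface, counted by deep sequencing, each peptide's frequency after selection divided by its frequency in the unselected input library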;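 note: frequency after pTyr selection over input frequency; kinase dosed for 20-30% of maximal phosphorylation in three min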
Sequence (P11362 whole entry, looked up): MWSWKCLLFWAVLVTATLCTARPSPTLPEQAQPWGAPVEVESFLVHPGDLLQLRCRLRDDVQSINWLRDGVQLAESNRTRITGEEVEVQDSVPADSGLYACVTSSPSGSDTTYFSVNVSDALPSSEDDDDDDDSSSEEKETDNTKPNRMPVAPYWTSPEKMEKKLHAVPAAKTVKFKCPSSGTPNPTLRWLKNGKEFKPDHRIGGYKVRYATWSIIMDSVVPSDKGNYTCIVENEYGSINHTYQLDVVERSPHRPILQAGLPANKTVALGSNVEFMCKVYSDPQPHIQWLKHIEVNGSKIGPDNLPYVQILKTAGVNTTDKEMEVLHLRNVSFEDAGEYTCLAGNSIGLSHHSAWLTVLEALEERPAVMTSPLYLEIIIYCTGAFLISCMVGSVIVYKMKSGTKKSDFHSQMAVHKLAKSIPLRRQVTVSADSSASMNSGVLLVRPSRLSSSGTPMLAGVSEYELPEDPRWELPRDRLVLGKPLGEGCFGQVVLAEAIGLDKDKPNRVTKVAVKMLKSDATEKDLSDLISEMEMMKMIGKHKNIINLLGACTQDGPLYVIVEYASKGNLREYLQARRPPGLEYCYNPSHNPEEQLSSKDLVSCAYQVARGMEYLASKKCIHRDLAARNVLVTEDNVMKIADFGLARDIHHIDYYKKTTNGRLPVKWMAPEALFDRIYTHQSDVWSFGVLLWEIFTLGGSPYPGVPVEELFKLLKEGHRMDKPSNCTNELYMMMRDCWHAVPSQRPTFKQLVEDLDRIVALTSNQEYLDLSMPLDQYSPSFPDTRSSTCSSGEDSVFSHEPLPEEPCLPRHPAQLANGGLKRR
Field: class. Source value: phosphorylation enrichment. Ranges: range A (below 0.5), range B (0.5 to below 0.7), range C (0.7 or more)

Class for RNVYYYSYLLK [PTEN_Y178_Y174N] ?
range C

----------
biological target: Fyn (UniProt P06241); experiment: phosphorylation enrichment, bacterial display (enrichment ratio); higher = better substrate or ligand; peptides without Tyr show the background
Sequence (P06241 whole entry, looked up): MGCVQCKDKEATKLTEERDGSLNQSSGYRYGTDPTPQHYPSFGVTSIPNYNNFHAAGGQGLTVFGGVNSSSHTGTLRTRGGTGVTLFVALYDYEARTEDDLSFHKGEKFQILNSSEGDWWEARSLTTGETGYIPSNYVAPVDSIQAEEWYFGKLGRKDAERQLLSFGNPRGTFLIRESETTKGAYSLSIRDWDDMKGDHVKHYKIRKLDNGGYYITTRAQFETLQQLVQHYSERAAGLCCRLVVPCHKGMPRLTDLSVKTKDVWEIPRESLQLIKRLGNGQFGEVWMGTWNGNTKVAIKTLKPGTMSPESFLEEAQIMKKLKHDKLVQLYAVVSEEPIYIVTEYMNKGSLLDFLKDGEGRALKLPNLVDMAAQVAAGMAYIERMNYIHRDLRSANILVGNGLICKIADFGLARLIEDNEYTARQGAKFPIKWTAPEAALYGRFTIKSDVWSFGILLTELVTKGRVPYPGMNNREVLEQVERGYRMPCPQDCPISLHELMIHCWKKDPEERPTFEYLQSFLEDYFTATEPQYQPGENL
The following sequences are listed with their measured phosphorylation enrichment values.
Would you mind answering with just the numeric figure?

• GMIQAYSSSQR [DES_Y5_S2I] = 0.346
• EAIMTYVSSFF [ACTN4_Y260_K255E_YF] = 0.778
• QQLDEYQKLLD [LMNA_Y359_E361K] = 0.724

For LGSVVYAQSKE [KCNQ2_Y226_H228Q] , what is its reported phosphorylation enrichment?
1.08

For SSDKVCAHQMV [MLH1_Y379_Y379C] , what is its reported phosphorylation enrichment?
0.388

For GYQPDYGQPAG [SYP_Y278] , what is its reported phosphorylation enrichment?
0.384

For INNIDYYKKTT [FGFR2_Y656] , what is its reported phosphorylation enrichment?
0.425

For TLSGTYQFIIA [FOXL2_Y81_I80T_YF] , what is its reported phosphorylation enrichment?
0.814

For AAVPAYDKIQV [STXBP2_Y401_R405Q] , what is its reported phosphorylation enrichment?
0.612

For PANTVYSTVEI [SLAMF7_Y304] , what is its reported phosphorylation enrichment?
10.2

----------
target: Fes (UniProt P07332); experiment: phosphorylation enrichment, bacterial display (enrichment ratio); higher = better substrate or ligand; peptides without Tyr show the background
Sequence (P07332 whole entry, looked up): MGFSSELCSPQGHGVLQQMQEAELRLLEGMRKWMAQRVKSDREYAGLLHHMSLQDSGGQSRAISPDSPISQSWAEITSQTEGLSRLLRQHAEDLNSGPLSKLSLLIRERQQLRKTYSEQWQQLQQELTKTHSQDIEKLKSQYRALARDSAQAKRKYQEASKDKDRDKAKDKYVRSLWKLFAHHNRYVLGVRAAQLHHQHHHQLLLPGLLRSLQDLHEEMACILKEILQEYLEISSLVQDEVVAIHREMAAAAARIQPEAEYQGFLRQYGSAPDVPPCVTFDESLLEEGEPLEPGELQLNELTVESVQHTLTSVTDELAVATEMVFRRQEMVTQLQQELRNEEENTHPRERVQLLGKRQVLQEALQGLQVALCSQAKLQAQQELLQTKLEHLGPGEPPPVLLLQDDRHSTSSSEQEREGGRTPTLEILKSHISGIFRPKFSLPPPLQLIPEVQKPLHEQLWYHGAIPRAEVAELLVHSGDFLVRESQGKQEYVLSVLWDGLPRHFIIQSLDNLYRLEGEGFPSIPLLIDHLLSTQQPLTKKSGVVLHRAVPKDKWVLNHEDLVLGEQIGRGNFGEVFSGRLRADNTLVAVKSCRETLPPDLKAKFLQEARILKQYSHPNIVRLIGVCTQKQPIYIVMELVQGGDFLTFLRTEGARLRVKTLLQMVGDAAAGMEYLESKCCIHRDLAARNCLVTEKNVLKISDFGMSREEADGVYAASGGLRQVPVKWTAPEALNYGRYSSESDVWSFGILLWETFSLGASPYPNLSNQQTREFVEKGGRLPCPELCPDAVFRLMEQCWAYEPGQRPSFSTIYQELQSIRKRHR
Use true when the recorded phosphorylation enrichment is no lower than 1; use false when it is lower.

* LTERDYSFVTT [ACTG2_Y199_G198D] | true
* FSQQVYRVNLS [FAT4_Y480] | false
* EKFVPYYDLFM [IPO5_Y530] | true

Form field: phosphorylation enrichment at least 1? Entry: CQKRKYIEIDS [SDAD1_Y580_S575C]
false

Form field: phosphorylation enrichment at least 1? Entry: EAEPFYCSLRD [NPHS1_Y1139_R1140C_YF]
true

Form field: phosphorylation enrichment at least 1? Entry: NELTFYCFKKD [CD59_Y87_C89Y_YF]
true

Form field: phosphorylation enrichment at least 1? Entry: YSTPPYLLEAA [BRIP1_Y921_S919P]
true

Form field: phosphorylation enrichment at least 1? Entry: GCKNRYDEDKP [THAP1_Y14_K16E]
false

Form field: phosphorylation enrichment at least 1? Entry: PASLSYLSFEG [EXOSC3_Y143]
false

Form field: phosphorylation enrichment at least 1? Entry: KAIMTYVPSFY [ACTN4_Y260_S262P]
false

Form field: phosphorylation enrichment at least 1? Entry: GVTLLCYGRYN [ADGRD1_Y85_Y85C]
true

Form field: phosphorylation enrichment at least 1? Entry: QLYGAYLRIHA [BSCL2_Y213]
true

Form field: phosphorylation enrichment at least 1? Entry: RIVTTYIRERE [DNM2_Y463]
true

Form field: phosphorylation enrichment at least 1? Entry: TFVVLYDAELT [ERCC4_Y581_R576T_YF]
true

Form field: phosphorylation enrichment at least 1? Entry: PPVVNYEQDAR [FER_Y402_E404Q]
true

----------
system: AncSZ; test: phosphorylation enrichment, bacterial display (enrichment ratio); higher = better substrate or ligand; peptides without Tyr show the background
Field: class. Source value: phosphorylation enrichment. Ranges: low bin (below 0.7), mid bin (0.7 to below 1), high bin (1 or more)

Here's what some known entries look like.
• CQKRKYIEIDS [SDAD1_Y580_S575C] = low bin
• TAGFSYEKWEI [TEC_Y360] = high bin

Class for RHIEKYVDQGK [IRAK3_Y61] ?
mid bin

Class for KDHPDYKYQLR [SOX10_Y171_P175L] ?
low bin

Class for APGNAYGDAGY [SYP_Y250_D248N] ?
mid bin

Class for RQEEEYKRLSE [SFSWAP_Y133] ?
high bin

Class for IVEFAYNDKAI [PUM3_Y259_YF] ?
mid bin

Class for PGIRMYRVQFN [LRFN1_Y454_Q455R_YF] ?
high bin

Class for KVVVPYEPPEV [TP53_Y220_S215K] ?
mid bin

Class for LERFIYNPEEF [HLA-DPB1_Y59_R61P_YF] ?
high bin

----------
test system: Fer (mouse); assay: phosphorylation enrichment, bacterial display (enrichment ratio); higher = better substrate or ligand; peptides without Tyr show the background
The following sequences are listed with their measured phosphorylation enrichment values.
Would you mind answering with just the numeric figure?

// known answers, use as guide
* IEDNEYTAREG [HCK_Y411] | 0.515
* EKFVPYYDLFM [IPO5_Y530] | 3.71
* MPLTEYLKQIK [CNGB3_Y200_R203Q] | 0.451
* QYKGKYLAKHN [CASK_Y712_D710G] | 0.819
* KEAALYPHLLP [SQSTM1_Y383_P387L] | 0.419
* LNERHYGALIG [BPGM_Y92] | 0.459

Now turn to the next sequence.
For EYRFIYMAVQH [PTPN11_Y515_Q510E] , what is its reported phosphorylation enrichment?
3.17

----------
target: FGFR3 (UniProt P22607); test: phosphorylation enrichment, bacterial display (enrichment ratio); higher = better substrate or ligand; peptides without Tyr show the background
Sequence (P22607 whole entry, looked up): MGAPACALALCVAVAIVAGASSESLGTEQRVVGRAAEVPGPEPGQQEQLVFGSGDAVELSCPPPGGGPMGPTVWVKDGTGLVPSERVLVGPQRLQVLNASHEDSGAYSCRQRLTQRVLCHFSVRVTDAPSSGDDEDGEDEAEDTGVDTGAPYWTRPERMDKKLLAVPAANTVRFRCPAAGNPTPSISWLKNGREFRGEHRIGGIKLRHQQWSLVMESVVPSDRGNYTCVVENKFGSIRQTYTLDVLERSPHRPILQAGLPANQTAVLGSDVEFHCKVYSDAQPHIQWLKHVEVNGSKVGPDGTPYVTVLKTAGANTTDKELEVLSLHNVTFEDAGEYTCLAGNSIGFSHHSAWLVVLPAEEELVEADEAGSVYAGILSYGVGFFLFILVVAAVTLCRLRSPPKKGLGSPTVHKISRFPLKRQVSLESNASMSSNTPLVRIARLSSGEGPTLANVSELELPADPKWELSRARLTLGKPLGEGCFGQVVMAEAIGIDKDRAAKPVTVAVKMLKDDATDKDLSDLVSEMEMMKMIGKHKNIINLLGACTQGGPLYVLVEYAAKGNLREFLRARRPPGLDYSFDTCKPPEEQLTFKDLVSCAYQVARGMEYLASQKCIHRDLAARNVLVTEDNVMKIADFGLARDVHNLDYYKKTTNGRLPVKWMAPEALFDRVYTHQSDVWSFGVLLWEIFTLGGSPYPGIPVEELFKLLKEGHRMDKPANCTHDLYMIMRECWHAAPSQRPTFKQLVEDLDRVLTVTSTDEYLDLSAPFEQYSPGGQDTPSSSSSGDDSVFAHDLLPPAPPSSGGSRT
MEASURED_ATTRIBUTE: phosphorylation enrichment
Would you mind answering with just the numeric figure?

// known answers, use as guide
- TNLVPYTRIHF [TUBA1A_Y262_P263T]: 0.506
- RFLFFYSFLLK [PTEN_Y178_V175L_YF]: 0.754
- PASWTYVRWFD [PTDSS1_Y274]: 1.35
- FDFKKYGKGLR [ZNF445_Y433_YF]: 0.498
- TVLEHYRRTHC [MYBPC3_Y1119]: 0.519

For EIRTQYEAMAS [GFAP_Y242] , what is its reported phosphorylation enrichment?
0.523

For QLLIKYPPEEV [ZZZ3_Y670] , what is its reported phosphorylation enrichment?
0.95

For NLMPAYYKCIQ [CYP21A2_Y190] , what is its reported phosphorylation enrichment?
0.866

----------
system: c-Abl (mouse); assay: phosphorylation enrichment, bacterial display (enrichment ratio); higher = better substrate or ligand; peptides without Tyr show the background
MEASURED_ATTRIBUTE: phosphorylation enrichment
Would you mind answering with just the numeric figure?

- VFSTDCFRVGG [NTRK2_Y706_Y706C_YF]: 1.04

For PFTRNYFVWAV [CYBA_Y87_R90W_YF] , what is its reported phosphorylation enrichment?
4.62

For VITDYYVDMKF [MPP4_Y567] , what is its reported phosphorylation enrichment?
1.18

For FRQLPYCPSVE [CTNND2_Y508_Q507P_YF] , what is its reported phosphorylation enrichment?
0.837

For PSGPTYRGAVP [ASAH1_Y43] , what is its reported phosphorylation enrichment?
0.489

For KENITYMKREQ [L1TD1_Y24] , what is its reported phosphorylation enrichment?
0.703

For LTERDYSFVTT [ACTG2_Y199_G198D] , what is its reported phosphorylation enrichment?
0.888

For AFLLLCFNDTH [BMP15_Y235_Y235C] , what is its reported phosphorylation enrichment?
1.01

For IEPVIDVVQRR [ANOS1_Y217_Y217D] , what is its reported phosphorylation enrichment?
0.624

For QRIHNYYEHRY [HCN4_Y554_D553N] , what is its reported phosphorylation enrichment?
0.791

For "TDGIAYEFRVT" , what is its reported phosphorylation enrichment?
0.933

For FDFKKYGKGLR [ZNF445_Y433_YF] , what is its reported phosphorylation enrichment?
0.392

For KGSEGYLAATF [NF1_Y2503_YF] , what is its reported phosphorylation enrichment?
0.634

For ADDSFYTARSA [ZAP70_Y493_YF] , what is its reported phosphorylation enrichment?
0.561

For NELTFYCFKKD [CD59_Y87_C89Y_YF] , what is its reported phosphorylation enrichment?
0.758

----------
The following sequences are listed with their measured phosphorylation enrichment values.
biological target: EPHB1 (UniProt P54762); assay: phosphorylation enrichment, bacterial display (enrichment ratio); higher = better substrate or ligand; peptides without Tyr show the background
Sequence (P54762 whole entry, looked up): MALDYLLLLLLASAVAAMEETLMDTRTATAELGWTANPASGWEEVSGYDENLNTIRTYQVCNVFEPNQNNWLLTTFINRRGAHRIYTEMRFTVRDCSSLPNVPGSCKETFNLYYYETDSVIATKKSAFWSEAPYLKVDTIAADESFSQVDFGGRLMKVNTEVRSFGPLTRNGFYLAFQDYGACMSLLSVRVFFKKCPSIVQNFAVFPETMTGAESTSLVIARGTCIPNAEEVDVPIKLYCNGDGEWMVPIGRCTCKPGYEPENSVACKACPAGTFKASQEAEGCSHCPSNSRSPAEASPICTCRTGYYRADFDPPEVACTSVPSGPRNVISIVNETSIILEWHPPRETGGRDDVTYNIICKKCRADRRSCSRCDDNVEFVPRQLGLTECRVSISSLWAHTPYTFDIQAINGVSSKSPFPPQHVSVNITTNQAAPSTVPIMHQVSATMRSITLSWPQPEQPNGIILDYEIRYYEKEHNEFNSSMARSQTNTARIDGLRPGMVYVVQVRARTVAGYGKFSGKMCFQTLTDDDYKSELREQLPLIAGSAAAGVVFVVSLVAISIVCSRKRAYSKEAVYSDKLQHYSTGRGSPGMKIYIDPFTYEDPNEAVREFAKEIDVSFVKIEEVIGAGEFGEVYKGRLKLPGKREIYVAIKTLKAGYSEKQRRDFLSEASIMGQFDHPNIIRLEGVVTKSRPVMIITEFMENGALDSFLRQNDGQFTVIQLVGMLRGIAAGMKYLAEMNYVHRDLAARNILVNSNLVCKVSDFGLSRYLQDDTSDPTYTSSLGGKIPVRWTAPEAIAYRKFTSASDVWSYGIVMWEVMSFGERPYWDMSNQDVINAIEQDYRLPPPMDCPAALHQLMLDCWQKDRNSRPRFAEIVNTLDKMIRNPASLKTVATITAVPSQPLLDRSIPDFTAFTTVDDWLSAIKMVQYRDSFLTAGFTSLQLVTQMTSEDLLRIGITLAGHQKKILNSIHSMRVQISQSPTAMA
Would you mind answering with just the numeric figure?

• RIAFQYGDTDL [MYBPC3_Y340_V342D] = 0.743
• RGEEPYTKKAL [TTC21B_Y160_K157E] = 0.413
• TLNTNYHLPPS [MT-ATP8_Y33_M28T] = 1.37
• SLNEEYAKNKT [MSH2_Y563_T564A] = 0.394
• SECCKYKIDNP [OSMR_Y689] = 0.464

Find the measured phosphorylation enrichment: item MENFIYESMQF [CYP19A1_Y361_R365Q_YF] , target or system EPHB1 (UniProt P54762).
8.07

Find the measured phosphorylation enrichment: item RNAAEYPLSSG [ABL1_Y139_L140P] , target or system EPHB1 (UniProt P54762).
0.337

Find the measured phosphorylation enrichment: item RLSELYLRRNR [CFAP410_Y68] , target or system EPHB1 (UniProt P54762).
0.94

Find the measured phosphorylation enrichment: item GFPVHYTDVSN [DNMT3B_Y815] , target or system EPHB1 (UniProt P54762).
0.477

Find the measured phosphorylation enrichment: item GGYTCCCDGKK [PROS1_Y266_Y266C] , target or system EPHB1 (UniProt P54762).
0.442

Find the measured phosphorylation enrichment: item VATRWYRSLEL [CDKL5_Y177_P180L] , target or system EPHB1 (UniProt P54762).
0.447

Find the measured phosphorylation enrichment: item DVMDFYKTLRG [NR3C1_Y30] , target or system EPHB1 (UniProt P54762).
0.404

Find the measured phosphorylation enrichment: item SRGLAYPARPA [LEMD2_Y122] , target or system EPHB1 (UniProt P54762).
0.328

Find the measured phosphorylation enrichment: item EQAERYDDMAA [YWHAG_Y20] , target or system EPHB1 (UniProt P54762).
0.508

Find the measured phosphorylation enrichment: item MPLTEYLKQIK [CNGB3_Y200_R203Q] , target or system EPHB1 (UniProt P54762).
0.572

Find the measured phosphorylation enrichment: item GFGGGYGGVLT [KRT19_Y65_A60G_YF] , target or system EPHB1 (UniProt P54762).
0.452

Find the measured phosphorylation enrichment: item FGIAQYCCRMG [LRRK2_Y2023_YF] , target or system EPHB1 (UniProt P54762).
0.751

Find the measured phosphorylation enrichment: item RAFRRYLLKQK [SCN2A_Y1919_YF] , target or system EPHB1 (UniProt P54762).
0.535

Find the measured phosphorylation enrichment: item AGRTGYDNREI [BCL2_Y9] , target or system EPHB1 (UniProt P54762).
0.392

Find the measured phosphorylation enrichment: item VAMELYVFRGV [GAN_Y471_G474R] , target or system EPHB1 (UniProt P54762).
0.707

Find the measured phosphorylation enrichment: item SLHPGYNFRYA [P2RX7_Y291_Y288H] , target or system EPHB1 (UniProt P54762).
0.351

Find the measured phosphorylation enrichment: item CSPLLYKVIMS [OR8D4_Y132_R133K] , target or system EPHB1 (UniProt P54762).
0.693

Find the measured phosphorylation enrichment: item DLQDENDFKCK [STAT1_Y170_Y170N] , target or system EPHB1 (UniProt P54762).
0.621

Find the measured phosphorylation enrichment: item HSRTRYERNIE [F2_Y434] , target or system EPHB1 (UniProt P54762).
0.851

Find the measured phosphorylation enrichment: item PSELFYSKISP [SMG1_Y2254_G2258S_YF] , target or system EPHB1 (UniProt P54762).
1.59
